- Experimental target: human Claudin 18.2 expressed on cells (HEK293/human Claudin 18.2; CHO-K1/human Claudin 18.2) (human, UniProt P56856-2 1-261)
- Run description: cell-based or functional assay
Test readout: CDC on CHO-K1/human Claudin 18.2 cells: Top (%)
The figure you give is taken to be in %; do not add the unit.

Field: example entries. Status: answers known.
Binder	Readout number
AHP32982 (antibody, V domains shown) VH: QVQLVQSGGGLVQPGGSLRLSCAASRNIGILSTMGWYRQAPGKQRELVATITRGGSTNYGEFVKGRFTISRDNAKNTVYLQMNSLKPEDTAVYYCNVDESWLGTQSYWGRGPLVTVSS VL: DIVMTQSPSSVSASVGDRVTITCRASQGISSWLAWYQQKPGKAPKLLIYAASSLQSGVPSRFSGSGSGTDFTLTISSLQPEDFATYYCQQANSFPLTFGGGTKVEIK	95.5
AHP32913 (antibody, V domains shown) VH: QVQLMQSGGGLVQPGGSLRLSCAASRNIGILSTMGWYRQAPGKQRELVATITRGGSTNYGEFVKGRFTISRDNAKNTVYLQMNSLKPEDTAVYYCNVDESWLGTQSYWGRGTQVTVSS VL: QAVVTQEPSLTVSPGGTVTLTCGSSTGPVTSGHYPHWYQQKPGQAPKTLIFDTSHKHPWTPAQFSGSLLGGKAALTLSGAHPEDEAEYYCLLSYSGVRVFGGGTQLIIL	93
AHP31548 (antibody, V domains shown) VH: QVQLMQSGGGLVQPGGSLRLSCAASRNIGILSTMGWYRQAPGKQRELVATITRGGSTNYGEFVKGRFTISRDNAKNTVYLQMNSLKPEDTAVYYCNVDESWLGTQSYWGRGTTVTVSS VL: QSALTQPPSASGSPGQSVTISCTGTSSDIGTYNFVSWYQQHPGKAPKLIIYEVSKRPSGVPDRFSGSKSGNTASLTVSGLQAEDEADYYCKSYPRVFGTGTKLTAL	94
AHP29153 (antibody, V domains shown) VH: QLQQVESGGGLVQPGGSLRLSCAASRNIGILSTMGWYRQAPGKQRELVATITRGGSTNYGEFVKGRFTISRDNAKNTVYLQMNSLKPEDTAVYYCNVDESWLGTQSYWGRGTTVTVSS VL: QSVLTQPASVSGSPGQSITISCTGTSSDVGGYKYVSWYQQPPGKAPKLIIYEVTKRPSGVPDRFSGSKSGNTASLTVSGLQAEDEADYYCLSYAGSNNVFGTGTKLTVL	96.3
AHP30826 (antibody, V domains shown) VH: QVQLQQSGGGSVQAGGSLRLSCAASGTILSINAMGWYRQAPGKQRELVATITTGGNANYAHSVKGRFTISRDNAKNTVYLQMNNLKPEDTAVYYCNAEQVVVGFLQAYDVWGQGTTVTVSS VL: DVVMTQSPLSLPVTLGQAASISCRSSQSLVHGDGNTYLNWIQQRPGQSPRRLIYKVSNRDSGVPDRFSGSGSGTDFTLKISRVEAEDVGVYYCMQGTHWPSTFGPGTKVDIK	96

Please report the measured CDC on CHO-K1/human Claudin 18.2 cells: Top for AHP32919 (antibody, V domains shown) VH: QVQLQESGGGVVQPGGSLRLSCAASQSIGLLSTMGWYRQAAGKQRELVATITRGGSTNYGEFVKGRFTISRDNAKNTVYLQMNSLKPEDTAVYYCTADESWLGTQSYWGRGTRVTVSS VL: QAGLTQPPSASGTPGQGVTISCSGSSSNIGSNSVNWYQQLPGTAPKLLMHSNNERSSGVPDRFSGSKSGSSASLAISGLQSEDAADYFCGAWDDSLNGYVFGTGTKLTVL
96.3
